Please provide measured pIC50 for the entries that follow.
System: U937 cells (human monocytic cell line)
Test: Pam2CSK4-induced TNF-α secretion inhibition in PMA-differentiated U937 cells
Assay type: cell-based
Conditions: U-937, U937 cells differentiated with PMA, read-out: TNF-α production inhibition grade (IC50)
Method: To evaluate anti-inflammatory efficacy, U937 cells (human monocytic cell line) were differentiated into macrophages using PMA (phorbol 12-myristate 13-acetate) and then induced an inflammatory response with Pam2CSK4 (Pam2CysSerLys4) or BzATP (2′(3′)—O-(4-Benzoylbenzoyl)adenosine 5′-triphosphate), the efficacy of taurine-bile acid derivatives in suppressing inflammatory cytokine (IL-1β, TNF-α) production was measured. […]
pIC50: −log10 of the molar value.

Guide cases for pIC50, answers given:
substance-smiles	pIC50
CC[C@H]1[C@@H](O)[C@@H]2[C@H](C[C@H](O)[C@]3(C)[C@@H]([C@H](C)CCC(=O)N4CC(S(=O)(=O)O)C4)CC[C@@H]23)[C@@]2(C)CC[C@@H](O)C[C@@H]12	5.70 to 6.00
CC[C@H]1[C@@H](O)[C@@H]2[C@H](CC[C@]3(C)[C@@H]([C@H](C)CCC(=O)N[C@H](CO)CS(=O)(=O)O)CC[C@@H]23)[C@@]2(C)CC[C@@H](O)C[C@@H]12	6.00 to 6.30
C[C@H](CCC(=O)N(CCS(=O)(=O)O)c1ccccc1)[C@H]1CC[C@H]2[C@@H]3[C@H](O)C[C@@H]4C[C@H](O)CC[C@]4(C)[C@H]3C[C@H](O)[C@]12C	> 6.30
CC(C)[C@H](CS(=O)(=O)O)NC(=O)CC[C@@H](C)[C@H]1CC[C@H]2[C@@H]3CC[C@@H]4C[C@H](O)CC[C@]4(C)[C@H]3CC[C@]12C	> 6.30
CC[C@H]1[C@@H](O)[C@@H]2[C@H](C[C@H](O)[C@]3(C)[C@@H]([C@H](C)CCC(=O)N(CCO)CCS(=O)(=O)O)CC[C@@H]23)[C@@]2(C)CC[C@@H](O)C[C@@H]12	≤ 5.70
C[C@H](CCC(=O)N[C@@H]1CCCC[C@@H]1S(=O)(=O)O)[C@H]1CC[C@H]2[C@@H]3[C@H](O)C[C@@H]4C[C@H](O)CC[C@]4(C)[C@H]3C[C@H](O)[C@]12C	5.70 to 6.00
C[C@H](CCC(=O)N1CCC[C@H]1CS(=O)(=O)O)[C@H]1CC[C@H]2[C@@H]3CC[C@@H]4C[C@H](O)CC[C@]4(C)[C@H]3CC[C@]12C	> 6.30
CC(C)[C@@H](CS(=O)(=O)O)NC(=O)CC[C@@H](C)[C@H]1CC[C@H]2[C@@H]3[C@H](O)C[C@@H]4C[C@H](O)CC[C@]4(C)[C@H]3C[C@H](O)[C@]12C	5.70 to 6.00

Each of the following entries comes with a recorded value; kindly state pIC50 for each.
1. C[C@H](CCC(=O)N[C@H](CO)CS(=O)(=O)O)[C@H]1CC[C@H]2[C@@H]3CC[C@@H]4CC(=O)CC[C@]4(C)[C@H]3CC[C@]12C
2. C[C@H](CCC(=O)N[C@H](CS(=O)(=O)O)c1ccccc1)[C@H]1CC[C@H]2[C@@H]3CC[C@@H]4CC(=O)CC[C@]4(C)[C@H]3CC[C@]12C

[A]
1. 5.70 to 6.00
2. ≤ 5.70
